Tested on: 324938-238-R-J1-PDC complex spheroid viability
Assay: Anticancer human tumor 324938-238-R-J1-PDC patient-derived bladder carcinoma cell line growth inhibition
Conditions: second compound 0.1 µM; first compound 0.000316 µM; stronger effect = lower value
hey, just use fulfilled if measured viability, T/C is less than 80%, otherwise not fulfilled

INSERT INTO measurements (compound, assayedtarget, labelclass) VALUES
  ('CC[C@@]1(O)C(=O)OCc2c1cc1n(c2=O)Cc2cc3c(CN(C)C)c(O)ccc3nc2-1 + NC1CC1c1ccc(-c2cccc(O)c2)cc1', '324938-238-R-J1-PDC complex spheroid viability', 'not fulfilled'),
  ('CC(C)CC(NC(=O)C(Cc1ccccc1)NC(=O)c1cnccn1)B(O)O (stereo not drawn) + NC1CCC(NC2CC2c2ccccc2)CC1', '324938-238-R-J1-PDC complex spheroid viability', 'fulfilled'),
  ('CC(C)CC(NC(=O)C(Cc1ccccc1)NC(=O)c1cnccn1)B(O)O (stereo not drawn) + NC1CC1c1ccc(-c2cccc(O)c2)cc1', '324938-238-R-J1-PDC complex spheroid viability', 'fulfilled'),
  ('Cn1ncnc1C1c2n[nH]c(=O)c3cc(F)cc(c23)NC1c1ccc(F)cc1 (stereo not drawn) + NC1CCC(NC2CC2c2ccccc2)CC1', '324938-238-R-J1-PDC complex spheroid viability', 'fulfilled'),
  ('CC(C)CC(NC(=O)CNC(=O)c1cc(Cl)ccc1Cl)B1OC(=O)CC(CC(=O)O)(C(=O)O)O1 (stereo not drawn) + NC1CC1c1ccc(-c2cccc(O)c2)cc1', '324938-238-R-J1-PDC complex spheroid viability', 'not fulfilled'),
  ('CC[C@@]1(O)C(=O)OCc2c1cc1n(c2=O)Cc2cc3c(CN(C)C)c(O)ccc3nc2-1 + NC1CCC(NC2CC2c2ccccc2)CC1', '324938-238-R-J1-PDC complex spheroid viability', 'not fulfilled');

====

System: 324938-238-R-J1-PDC complex spheroid viability
Assay: Anticancer human tumor 324938-238-R-J1-PDC cell line growth inhibition
Conditions: second compound 10 µM; first compound 0.1 µM; stronger effect = lower value
measurementType: viability, T/C (%)

INSERT INTO results (compound, measurementtype, experimentalvalue) VALUES
  ('CC1COCCN1c1cc(-c2ccnn2C)c2ccnc(-c3ccn[nH]3)c2n1 (configuration not stated) + NC1CC1c1ccc(-c2cccc(O)c2)cc1', 'viability, T/C', 24.2),
  ('Nc1ncn(C2CC(O)C(CO)O2)c(=O)n1 (configuration not stated) + NC1CC1c1ccc(-c2cccc(O)c2)cc1', 'viability, T/C', 57.6),
  ('CC1COCCN1c1cc(-c2ccnn2C)c2ccnc(-c3ccn[nH]3)c2n1 (configuration not stated) + NC1CCC(NC2CC2c2ccccc2)CC1', 'viability, T/C', 30.8),
  ('O=C(c1cc(Cc2n[nH]c(=O)c3ccccc23)ccc1F)N1CCN(C(=O)C2CC2)CC1 + NC1CCC(NC2CC2c2ccccc2)CC1', 'viability, T/C', 65.8),
  ('O=C(C=Cn1cnc(-c2cc(C(F)(F)F)cc(C(F)(F)F)c2)n1)NNc1cnccn1 + NC1CCC(NC2CC2c2ccccc2)CC1', 'viability, T/C', 15.3),
  ('Nc1ncn(C2CC(O)C(CO)O2)c(=O)n1 (configuration not stated) + NC1CCC(NC2CC2c2ccccc2)CC1', 'viability, T/C', 59.1),
  ('CC(C)CC(NC(=O)CNC(=O)c1cc(Cl)ccc1Cl)B1OC(=O)CC(CC(=O)O)(C(=O)O)O1 (configuration not stated) + NC1CC1c1ccc(-c2cccc(O)c2)cc1', 'viability, T/C', 0.22);

====

Test system: 324938-238-R-J1-PDC complex spheroid viability
Experiment: Anticancer human tumor 324938-238-R-J1-PDC cell line growth inhibition; active = viability on the fitted dose curve at most 10% of control; inactive = the rest;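 further: spheroids also contain HUVEC and human MSCs and agents combined with iadademstat; spheroids exposed to agents for 7 days before readout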
Details: second compound 3.16 µM; first compound 0.00316 µM
Outcomes: active, inactive

INSERT INTO measurements (compound, assayedtarget, labelclass) VALUES
  ('CC(C)CC(NC(=O)C(Cc1ccccc1)NC(=O)c1cnccn1)B(O)O (configuration not stated) + NC1CC1c1ccc(-c2cccc(O)c2)cc1', '324938-238-R-J1-PDC complex spheroid viability', 'active'),
  ('CC[C@@]1(O)C(=O)OCc2c1cc1n(c2=O)Cc2cc3c(CN(C)C)c(O)ccc3nc2-1 + NC1CC1c1ccc(-c2cccc(O)c2)cc1', '324938-238-R-J1-PDC complex spheroid viability', 'inactive'),
  ('CC1COCCN1c1cc(-c2ccnn2C)c2ccnc(-c3ccn[nH]3)c2n1 (configuration not stated) + NC1CCC(NC2CC2c2ccccc2)CC1', '324938-238-R-J1-PDC complex spheroid viability', 'inactive'),
  ('Nc1ncn(C2CC(O)C(CO)O2)c(=O)n1 (configuration not stated) + NC1CCC(NC2CC2c2ccccc2)CC1', '324938-238-R-J1-PDC complex spheroid viability', 'inactive'),
  ('CC[C@@]1(O)C(=O)OCc2c1cc1n(c2=O)Cc2cc3c(CN(C)C)c(O)ccc3nc2-1 + NC1CCC(NC2CC2c2ccccc2)CC1', '324938-238-R-J1-PDC complex spheroid viability', 'inactive'),
  ('Cn1ncnc1C1c2n[nH]c(=O)c3cc(F)cc(c23)NC1c1ccc(F)cc1 (configuration not stated) + NC1CCC(NC2CC2c2ccccc2)CC1', '324938-238-R-J1-PDC complex spheroid viability', 'inactive'),
  ('COc1cc(Nc2ncc3c(n2)-c2ccc(Cl)cc2C(c2c(F)cccc2OC)=NC3)ccc1C(=O)O + NC1CCC(NC2CC2c2ccccc2)CC1', '324938-238-R-J1-PDC complex spheroid viability', 'inactive');

====

Test system: 324938-238-R-J1-PDC complex spheroid viability
Test: Anticancer human tumor 324938-238-R-J1-PDC cell line growth inhibition; active = viability on the fitted dose curve at most 10% of control; inactive = the rest;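 further: spheroids also contain HUVEC and human MSCs and agents combined with iadademstat; spheroids exposed to agents for 7 days before readout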
Settings: second compound 0.1 µM; first compound 0.0316 µM
Outcomes: active, inactive

INSERT INTO results (molecule, labelclass) VALUES
  ('Cn1ncnc1C1c2n[nH]c(=O)c3cc(F)cc(c23)NC1c1ccc(F)cc1 (centres undefined) + NC1CCC(NC2CC2c2ccccc2)CC1', 'inactive'),
  ('Cn1ncnc1C1c2n[nH]c(=O)c3cc(F)cc(c23)NC1c1ccc(F)cc1 (centres undefined) + NC1CC1c1ccc(-c2cccc(O)c2)cc1', 'inactive'),
  ('CC(C)CC(NC(=O)CNC(=O)c1cc(Cl)ccc1Cl)B1OC(=O)CC(CC(=O)O)(C(=O)O)O1 (centres undefined) + NC1CCC(NC2CC2c2ccccc2)CC1', 'active'),
  ('CC(C)c1c(-c2ccccc2)nc2c(C#N)c[nH]n2c1=O + NC1CC1c1ccc(-c2cccc(O)c2)cc1', 'inactive');

====

System: 324938-238-R-J1-PDC complex spheroid viability
Test: Anticancer human tumor 324938-238-R-J1-PDC cell line growth inhibition;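 further: spheroids also contain HUVEC and human MSCs and agents combined with iadademstat; spheroids exposed to agents for 7 days before readout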
Conditions: second compound 3.16 µM; first compound 0.3 µM; stronger effect = lower value
Each record here notes measured viability, T/C.
measurementType: viability, T/C (%)

INSERT INTO measurements (molecule, experimentalvalue) VALUES
  ('O=C(C=Cc1cccc(S(=O)(=O)Nc2ccccc2)c1)NO + NC1CCC(NC2CC2c2ccccc2)CC1', 33.8),
  ('COc1cc(C2c3cc4c(cc3C(OC3OC5COC(C)OC5C(O)C3O)C3COC(=O)C23)OCO4)cc(OC)c1O (centres undefined) + NC1CC1c1ccc(-c2cccc(O)c2)cc1', 23.3),
  ('Nc1ncn(C2CC(O)C(CO)S2)c(=O)n1 (centres undefined) + NC1CCC(NC2CC2c2ccccc2)CC1', 22.2),
  ('COc1cc(C2c3cc4c(cc3C(OC3OC5COC(C)OC5C(O)C3O)C3COC(=O)C23)OCO4)cc(OC)c1O (centres undefined) + NC1CCC(NC2CC2c2ccccc2)CC1', 27.1),
  ('Nc1ncn(C2CC(O)C(CO)S2)c(=O)n1 (centres undefined) + NC1CC1c1ccc(-c2cccc(O)c2)cc1', 17.5),
  ('CCN(c1cc(-c2ccc(CN3CCOCC3)cc2)cc(C(=O)NCc2c(C)cc(C)[nH]c2=O)c1C)C1CCOCC1 + NC1CCC(NC2CC2c2ccccc2)CC1', 74),
  ('NS(=O)(=O)OCC1CC(n2ccc3c(NC4CCc5ccccc54)ncnc32)CC1O (centres undefined) + NC1CC1c1ccc(-c2cccc(O)c2)cc1', 50.3),
  ('O=C(C=Cc1cccc(S(=O)(=O)Nc2ccccc2)c1)NO + NC1CC1c1ccc(-c2cccc(O)c2)cc1', 34.4),
  ('CCc1c2c(nc3ccc(O)cc13)-c1cc3c(c(=O)n1C2)COC(=O)[C@]3(O)CC + NC1CCC(NC2CC2c2ccccc2)CC1', 0.11);

====

Each record here notes measured viability, T/C.
Test system: 324938-238-R-J1-PDC complex spheroid viability
Experiment: Anticancer human tumor 324938-238-R-J1-PDC cell line growth inhibition;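 further: spheroids also contain HUVEC and human MSCs and agents combined with iadademstat; spheroids exposed to agents for 7 days before readout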
Conditions: second compound 3.16 µM; first compound 1 µM; stronger effect = lower value
Description: Multicellular complex tumor spheroid response to LSD1 Inhibitor Iadademstat in combination with a variety of drugs and investigational agents in selected tumor cell lines The current study was undertaken to assess response to LSD1 inhibitors in combination with standard-of-care drugs and investigational agents in solid tumor complex spheroid models as well as in the K-562 leukemia. […] Compounds. […] If the clinical Cmax for an agent had not been determined, the highest concentration tested was 10 microM. […]
measurementType: viability, T/C

INSERT INTO results (compound, experimentalvalue) VALUES
  ('COc1ccc([C@@H](O)c2cc(-c3ncnc4cc(N5CCOCC5)ccc34)c(F)cc2Cl)nn1 + NC1CCC(NC2CC2c2ccccc2)CC1', '48.4%'),
  ('COc1cc(Nc2ncc3c(n2)-c2ccc(Cl)cc2C(c2c(F)cccc2OC)=NC3)ccc1C(=O)O + NC1CCC(NC2CC2c2ccccc2)CC1', '21.2%'),
  ('CC1COCCN1c1cc(-c2ccnn2C)c2ccnc(-c3ccn[nH]3)c2n1 (centres undefined) + NC1CC1c1ccc(-c2cccc(O)c2)cc1', '12%'),
  ('O=C(c1cc(Cc2n[nH]c(=O)c3ccccc23)ccc1F)N1CCN(C(=O)C2CC2)CC1 + NC1CCC(NC2CC2c2ccccc2)CC1', '71%');

Origin of the recorded values: PubChem BioAssay AID1918935
